# assayed.target: Mu-type opioid receptor (Homo sapiens, UniProt P35372)
# Sequence (P35372 whole entry): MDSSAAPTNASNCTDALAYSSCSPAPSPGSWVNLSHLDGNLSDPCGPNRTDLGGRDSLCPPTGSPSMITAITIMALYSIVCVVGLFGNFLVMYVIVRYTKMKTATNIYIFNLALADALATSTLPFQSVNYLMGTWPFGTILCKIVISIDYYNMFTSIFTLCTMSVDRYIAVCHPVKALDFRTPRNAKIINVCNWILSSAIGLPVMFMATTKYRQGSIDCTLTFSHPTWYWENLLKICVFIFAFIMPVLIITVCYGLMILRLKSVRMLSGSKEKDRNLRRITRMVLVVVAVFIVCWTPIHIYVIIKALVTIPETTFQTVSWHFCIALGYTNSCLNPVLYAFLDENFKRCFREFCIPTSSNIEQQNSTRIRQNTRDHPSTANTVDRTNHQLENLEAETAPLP
# experimental.details: Agonist activity at MOR (unknown origin) by cAMP assay
pEC50: −log10 of the molar value.
measured.parameter: pEC50

1) FC(CCN1CCc2ccccc2CC1)Cc1ccccc1 (configuration not stated) :: < 5.00

Let us examine a further case.
Asked: Suppose we examine the compound COc1ccc2c(c1)CCN(CCC(F)Cc1ccccc1)CC2 (configuration not stated) ; what pEC50 value has been reported?
Given back: < 5.00

====

# Species on record: Sus scrofa
# stated.conditions: at 1 µM
# Description: Displacement of [3H]-(+)-MK-801 from NMDA PCP binding site in pig brain cortex membrane at 1 uM incubated for 120 mins by scintillation counting method relative to control
measured.parameter: inhibition (%)

1. COc1ccc2c(c1)CCN(CCC(F)Cc1ccccc1)CC2O (centres undefined)
2. Oc1ccc2c(c1)CCN(CCC(F)Cc1ccccc1)CC2O (centres undefined)
3. Oc1ccc2c(c1)CCN(CCC(F)Cc1ccccc1)CC2 (racemic)
Asked: Sort (3 compounds) by inhibition: min first. Please reply with the labels ordered as requested. Many thanks.
Given back: 1, 2, 3
(1: 0%, 2: 8%, 3: 15%)

1. FC(CCN1CCc2ccccc2CC1)Cc1ccccc1 (centres undefined)
2. COc1ccc2c(c1)CCN(CCC(F)Cc1ccccc1)CC2 (centres undefined)
3. Oc1ccc2c(c1)CCN(CCCCc1ccccc1)CC2O (centres undefined)
Asked: Could you please sort these 3 entries by inhibition from high to low? Please reply with the labels ordered as requested. Many thanks.
Given back: 3, 2, 1

====

# assayed.target: UniProt Q12809
# Sequence (Q12809 whole entry): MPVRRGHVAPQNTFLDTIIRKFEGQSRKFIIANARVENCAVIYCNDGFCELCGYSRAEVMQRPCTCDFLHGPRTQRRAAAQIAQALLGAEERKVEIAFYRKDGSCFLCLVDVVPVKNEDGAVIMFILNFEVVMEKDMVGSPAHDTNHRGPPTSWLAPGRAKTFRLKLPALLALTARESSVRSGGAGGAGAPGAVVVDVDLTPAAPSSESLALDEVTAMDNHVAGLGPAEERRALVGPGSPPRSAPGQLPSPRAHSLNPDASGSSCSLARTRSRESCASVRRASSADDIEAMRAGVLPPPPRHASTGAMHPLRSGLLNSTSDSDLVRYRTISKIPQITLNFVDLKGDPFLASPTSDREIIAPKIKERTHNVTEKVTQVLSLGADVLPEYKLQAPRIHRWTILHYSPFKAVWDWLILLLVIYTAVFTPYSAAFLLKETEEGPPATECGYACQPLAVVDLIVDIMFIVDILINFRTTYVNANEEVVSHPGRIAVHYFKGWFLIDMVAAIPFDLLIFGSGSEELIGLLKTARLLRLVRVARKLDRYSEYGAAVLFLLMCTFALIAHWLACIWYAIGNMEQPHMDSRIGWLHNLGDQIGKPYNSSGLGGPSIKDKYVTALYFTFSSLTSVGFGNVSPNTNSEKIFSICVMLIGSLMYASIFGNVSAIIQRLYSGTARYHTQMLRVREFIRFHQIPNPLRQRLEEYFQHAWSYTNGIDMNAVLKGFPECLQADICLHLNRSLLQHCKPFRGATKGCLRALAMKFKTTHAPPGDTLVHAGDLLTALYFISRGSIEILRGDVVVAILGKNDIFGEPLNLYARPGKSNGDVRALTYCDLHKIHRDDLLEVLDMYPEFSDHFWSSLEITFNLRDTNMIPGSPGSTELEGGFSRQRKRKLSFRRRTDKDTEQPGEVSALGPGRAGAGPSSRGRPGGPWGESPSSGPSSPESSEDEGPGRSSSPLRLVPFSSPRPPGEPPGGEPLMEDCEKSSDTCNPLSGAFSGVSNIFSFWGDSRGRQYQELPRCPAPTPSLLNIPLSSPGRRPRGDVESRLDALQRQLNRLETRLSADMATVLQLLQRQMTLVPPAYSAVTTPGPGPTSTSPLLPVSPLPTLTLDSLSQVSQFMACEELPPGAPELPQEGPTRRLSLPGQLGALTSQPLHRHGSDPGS
# experimental.details: Inhibition of human ERG expressed in CHO cells at -80 mV holding potential by automated patch clamp electrophysiology assay
# Lookup of reported pIC50 keyed by entry
To interpret pIC50, take it as minus log10 of a concentration measured in moles per litre.

1. COc1ccc2c(c1)CCN(CCC(F)Cc1ccccc1)CC2 (configuration not stated) :: 6.26

Asked: Suppose we examine the molecule FC(CCN1CCc2ccccc2CC1)Cc1ccccc1 (configuration not stated) ; what pIC50 value has been reported?
Given back: 5.93

====

# experimental.details: Drug metabolism in rat liver microsomes at 1 uM incubated for 1 hr in presence of NADPH by UPLC-MS analysis
# Type: ADME, Microsome
# stated.conditions: read-out: Drug metabolism
measured.parameter: metabolised at 1 h, 1 µM (%)

1. FC(CCN1CCc2ccccc2CC1)Cc1ccccc1 (configuration not stated) :: 100
2. COc1ccc2c(c1)CCN(CCC(F)Cc1ccccc1)CC2 (configuration not stated) :: 100

====

# assayed.target: CYP2D6 (Homo sapiens, UniProt P10635)
# Sequence (P10635 whole entry): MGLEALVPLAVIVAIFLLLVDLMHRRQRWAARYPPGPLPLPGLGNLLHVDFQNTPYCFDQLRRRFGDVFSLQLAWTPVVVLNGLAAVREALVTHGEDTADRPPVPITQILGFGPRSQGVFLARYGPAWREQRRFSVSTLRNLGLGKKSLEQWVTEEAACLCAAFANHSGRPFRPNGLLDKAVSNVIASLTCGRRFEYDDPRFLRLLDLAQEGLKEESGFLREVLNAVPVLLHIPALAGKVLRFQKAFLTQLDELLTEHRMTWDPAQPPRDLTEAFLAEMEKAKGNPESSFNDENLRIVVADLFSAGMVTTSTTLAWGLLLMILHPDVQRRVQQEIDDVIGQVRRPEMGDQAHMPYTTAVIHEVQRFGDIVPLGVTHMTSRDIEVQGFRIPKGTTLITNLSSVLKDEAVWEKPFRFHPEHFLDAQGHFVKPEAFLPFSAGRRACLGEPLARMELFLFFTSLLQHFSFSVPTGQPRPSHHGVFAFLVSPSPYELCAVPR
# experimental.details: Inhibition of recombinant human CYP2D6 at 1 uM by fluorescence probe substrate-based flurometric analysis
# Type: ADME
measured.parameter: inhibition at 1 µM (%)

1. COc1ccc2c(c1)CCN(CCC(F)Cc1ccccc1)CC2 (configuration not stated)
2. FC(CCN1CCc2ccccc2CC1)Cc1ccccc1 (configuration not stated)
Asked: Problem: Given the entries 1 and 2 , determine which has the lower reported inhibition at 1 µM. Selection: enter the item's label.
Given back: 1
(1: 55%, 2: 85%)

====

# assayed.target: Sigma intracellular receptor 2 (Rattus norvegicus)
# Sequence (Q5U3Y7 whole entry): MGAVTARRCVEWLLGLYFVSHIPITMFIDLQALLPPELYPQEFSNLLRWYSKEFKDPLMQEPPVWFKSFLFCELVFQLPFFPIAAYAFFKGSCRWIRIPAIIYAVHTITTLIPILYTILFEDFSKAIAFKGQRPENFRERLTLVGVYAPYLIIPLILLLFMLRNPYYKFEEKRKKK
# experimental.details: Displacement of [3H]-di-o-tolylguanidine from sigma2 receptor in rat liver membranes incubated for 120 mins by scintillation counting method
measured.parameter: Ki (nM)

1) OC1CN(CC(F)CCc2ccccc2)CCc2cc(OCc3ccccc3)ccc21 (stereo unspecified) :: 1400

a. FCCOc1ccc2c(c1)CCN(CCC(F)Cc1ccccc1)CC2 (stereo unspecified)
b. COc1ccc2c(c1)CCN(CCCCc1ccccc1)CC2
c. Oc1ccc2c(c1)CCN(CCCCc1ccccc1)CC2
d. Oc1ccc2c(c1)CCN(CCC(F)Cc1ccccc1)CC2O (stereo unspecified)
Asked: Could you please sort these 4 entries by Ki from high to low? Please reply with the labels ordered as requested. Many thanks.
Given back: a, d, b, c

====

Sigma non-opioid intracellular receptor 1 (Cavia porcellus): recorded Ki for assorted compounds
Sequence (Q60492 whole entry): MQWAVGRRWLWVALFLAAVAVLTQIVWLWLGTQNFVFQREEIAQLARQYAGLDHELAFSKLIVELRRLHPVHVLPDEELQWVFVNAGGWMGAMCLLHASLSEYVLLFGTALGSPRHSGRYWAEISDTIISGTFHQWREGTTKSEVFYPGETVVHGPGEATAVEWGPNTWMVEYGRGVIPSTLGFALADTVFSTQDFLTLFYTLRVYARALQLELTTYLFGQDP
measured.parameter: Ki (nM)

# count of solved cases: 6
1) Oc1ccc2c(c1)CCN(CCC(F)Cc1ccccc1)CC2O (stereo unspecified) :: 1400
2) FC(CCOc1ccc2c(c1)CCN(CCC(F)Cc1ccccc1)CC2)Cc1ccccc1 (stereo unspecified) :: 185
3) FC(CCc1ccccc1)CN1CCc2ccccc2CC1 (stereo unspecified) :: 108
4) OC1CN(CC(F)CCc2ccccc2)CCc2cc(OCc3ccccc3)ccc21 (stereo unspecified) :: 393
5) COc1ccc2c(c1)CCN(CCCCc1ccccc1)CC2 :: 11
6) FC(CCN1CCc2ccccc2CC1)Cc1ccccc1 (stereo unspecified) :: 8

P. COc1ccc2c(c1)CCN(CCC(F)Cc1ccccc1)CC2O (stereo unspecified)
Q. Oc1ccc2c(c1)CCN(CCC(F)Cc1ccccc1)CC2 (single isomer, unassigned; (+))
R. Oc1ccc2c(c1)CCN(CCC(F)Cc1ccccc1)CC2 (racemic)
S. FCCOc1ccc2c(c1)CCN(CCC(F)Cc1ccccc1)CC2 (stereo unspecified)
Asked: Provide the items ranked by increasing Ki. Please reply with the labels ordered as requested. Many thanks.
Given back: Q, R, S, P
(Q: 10 nM, R: 17 nM, S: 25 nM, P: 210 nM)

====

# assayed.target: Sigma intracellular receptor 2 (Rattus norvegicus)
# experimental.details: Displacement of [3H]-di-o-tolylguanidine from sigma2 receptor in rat liver membranes incubated for 120 mins by scintillation counting method
pKi: −log10 of the molar value.
measured.parameter: pKi

1) Oc1ccc2c(c1)CCN(CC(F)CCc1ccccc1)CC2 (stereo unspecified) :: 6.82
2) COc1ccc2c(c1)CCN(CC(F)CCc1ccccc1)CC2O (stereo unspecified) :: 5.10
3) Oc1ccc2c(c1)CCN(CCC(F)Cc1ccccc1)CC2 (single isomer, unassigned; (+)) :: 7.31
4) COc1ccc2c(c1)CCN(CC(F)CCc1ccccc1)CC2 (stereo unspecified) :: 6.13
5) FC(CCN1CCc2ccccc2CC1)Cc1ccccc1 (stereo unspecified) :: 7.32
6) Oc1ccc2c(c1)CCN(CCC(F)Cc1ccccc1)CC2 (single isomer, unassigned; (-)) :: 7.20

====

# Lookup of reported pKi keyed by entry
# assayed.target: Delta-type opioid receptor (Homo sapiens, UniProt P41143)
# Sequence (P41143 whole entry): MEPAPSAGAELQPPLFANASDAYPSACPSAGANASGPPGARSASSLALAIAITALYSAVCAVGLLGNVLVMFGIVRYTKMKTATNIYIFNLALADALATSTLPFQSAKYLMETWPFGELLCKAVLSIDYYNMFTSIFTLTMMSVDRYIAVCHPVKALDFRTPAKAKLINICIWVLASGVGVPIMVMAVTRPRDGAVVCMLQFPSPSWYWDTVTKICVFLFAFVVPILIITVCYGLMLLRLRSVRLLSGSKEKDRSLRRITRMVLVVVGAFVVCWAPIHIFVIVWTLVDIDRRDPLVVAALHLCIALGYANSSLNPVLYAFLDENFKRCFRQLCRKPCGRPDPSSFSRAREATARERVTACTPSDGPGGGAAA
# experimental.details: Inhibition of DOR (unknown origin)
pKi: −log10 of the molar value.

1. FC(CCN1CCc2ccccc2CC1)Cc1ccccc1 (configuration not stated) :: < 6.00

Let us examine a further case.
Asked: Suppose we examine the compound COc1ccc2c(c1)CCN(CCC(F)Cc1ccccc1)CC2 (configuration not stated) ; what pKi value has been reported?
Given back: < 6.00

====

# assayed.target: Sigma intracellular receptor 2 (Rattus norvegicus)
# experimental.details: Displacement of [3H]-di-o-tolylguanidine from sigma2 receptor in rat liver membranes incubated for 120 mins by scintillation counting method
measured.parameter: Ki (nM)

a. OC1CN(CCC(F)Cc2ccccc2)CCc2cc(OCc3ccccc3)ccc21 (stereo not given)
b. COc1ccc2c(c1)CCN(CCC(F)Cc1ccccc1)CC2 (stereo not given)
c. COc1ccc2c(c1)CCN(CCC(F)Cc1ccccc1)CC2O (stereo not given)
d. Oc1ccc2c(c1)CCN(CCC(F)Cc1ccccc1)CC2 (racemic)
e. FC(CCOc1ccc2c(c1)CCN(CCC(F)Cc1ccccc1)CC2)Cc1ccccc1 (stereo not given)
Asked: Sort (5 compounds) by Ki: min first. Please reply with the labels ordered as requested. Many thanks.
Given back: d, b, e, a, c
(d: 39 nM, b: 115 nM, e: 643 nM, a: 1800 nM, c: 4500 nM)

====

pKi: −log10 of the molar value.
Sigma non-opioid intracellular receptor 1 (Cavia porcellus): recorded pKi for assorted molecules;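 note: radioligand displacement of [3H]-(+)-pentazocine from guinea pig brain cortex membranes, 120 min incubation, bound radioactivity read by scintillation counting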
measured.parameter: pKi

# count of solved cases: 4
1. COc1ccc2c(c1)CCN(CC(F)CCc1ccccc1)CC2O (stereo unspecified) :: 6.23
2. Oc1ccc2c(c1)CCN(CCCCc1ccccc1)CC2 :: 7.49
3. Oc1ccc2c(c1)CCN(CC(F)CCc1ccccc1)CC2 (stereo unspecified) :: 7.15
4. COc1ccc2c(c1)CCN(CC(F)CCc1ccccc1)CC2 (stereo unspecified) :: 6.67

I. Oc1ccc2c(c1)CCN(CCC(F)Cc1ccccc1)CC2 (single isomer, unassigned; (-))
II. COc1ccc2c(c1)CCN(CCC(F)Cc1ccccc1)CC2 (stereo unspecified)
Asked: Problem: Given the entries I and II , determine which has the lower reported pKi. Selection: enter the item's label.
Given back: I
(I: 7.60, II: 8.18)

Data origin: ChEMBL document CHEMBL4393719
